# tested_target: Sentrin-specific protease 6 (Homo sapiens) (UniProt Q9GZR1)
# Sequence (Q9GZR1 628-1112 limits assumed): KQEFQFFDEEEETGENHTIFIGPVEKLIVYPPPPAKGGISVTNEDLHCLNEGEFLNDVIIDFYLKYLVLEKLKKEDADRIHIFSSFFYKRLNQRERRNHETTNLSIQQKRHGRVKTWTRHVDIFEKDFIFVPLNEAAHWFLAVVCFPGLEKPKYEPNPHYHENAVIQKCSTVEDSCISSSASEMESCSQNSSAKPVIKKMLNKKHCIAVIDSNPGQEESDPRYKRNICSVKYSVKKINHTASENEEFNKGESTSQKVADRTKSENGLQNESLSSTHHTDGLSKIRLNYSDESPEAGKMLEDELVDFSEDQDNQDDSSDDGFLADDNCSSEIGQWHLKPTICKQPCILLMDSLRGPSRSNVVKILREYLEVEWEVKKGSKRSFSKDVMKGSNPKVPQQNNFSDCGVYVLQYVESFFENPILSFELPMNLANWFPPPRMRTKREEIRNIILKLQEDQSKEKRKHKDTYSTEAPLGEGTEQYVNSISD
# test_summary: SENP6 protease inhibitors, confirmation, biochemical, luminescence, single concentration (AID 488915)
# condition_notes: recombinant SENP6, Z-RLRGG-aminoluciferin luminescence; at 12.5 µM; stronger effect = higher value
This is one part of the list.
Short version: inhibition at least 40% is Satisfied, less is Not satisfied.

Cn1c(NC(=O)c2ccccc2)nc2ccccc21; Satisfied
O=C(Nc1ccccc1)c1ccc(NC(=O)c2cccs2)cc1; Not satisfied
O=C(Nc1ccccc1)Nc1ccccc1C(=O)NCc1ccco1; Satisfied
COc1ccc(C(=O)Nc2ccc3c(c2)OCO3)cc1OC; Satisfied
O=[N+]([O-])c1ccc(C=Nc2ccc(Cl)cc2Cl)s1; Not satisfied
COc1cc(NC(=O)COC(=O)c2ccc([N+](=O)[O-])s2)cc(OC)c1OC; Satisfied
COc1ccc(NC(=O)Nc2cccc3cccnc23)cc1; Satisfied
O=C(Nc1cc2ccccc2oc1=O)C1CCCCC1; Not satisfied
Nc1ccc(-c2nnc(-c3ccc(-c4ccccc4)cc3)o2)cc1; Not satisfied
Cc1cc(C(=O)N/N=C/c2ccc(N3CCOCC3)cc2)c(C)o1; Satisfied
CCCCOc1ccc(-c2nnc(-c3ccco3)o2)cc1; Satisfied
Cc1ccnc(NC(=O)c2ccoc2C)c1; Satisfied

----------
Entries and their inhibition values follow.
# tested_target: PEG-3 (UniProt Q6IN02)
# Sequence (Q6IN02 whole entry, looked up): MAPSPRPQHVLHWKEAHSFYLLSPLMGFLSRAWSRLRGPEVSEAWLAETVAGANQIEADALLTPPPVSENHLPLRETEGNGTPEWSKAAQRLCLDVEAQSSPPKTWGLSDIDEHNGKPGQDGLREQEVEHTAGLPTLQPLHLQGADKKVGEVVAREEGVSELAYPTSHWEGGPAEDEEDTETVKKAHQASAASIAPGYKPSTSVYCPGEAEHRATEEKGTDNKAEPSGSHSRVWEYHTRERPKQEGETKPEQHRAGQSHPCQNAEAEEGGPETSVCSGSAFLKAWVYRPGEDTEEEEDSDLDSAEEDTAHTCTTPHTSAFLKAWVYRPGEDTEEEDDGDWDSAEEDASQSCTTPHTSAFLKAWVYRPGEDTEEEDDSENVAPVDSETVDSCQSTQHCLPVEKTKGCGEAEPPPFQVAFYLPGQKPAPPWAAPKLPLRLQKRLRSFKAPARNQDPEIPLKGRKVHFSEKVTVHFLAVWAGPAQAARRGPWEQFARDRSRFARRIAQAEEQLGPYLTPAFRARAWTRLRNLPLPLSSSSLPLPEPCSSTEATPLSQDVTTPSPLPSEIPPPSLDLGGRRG
# test_summary: Peg3 promoter luciferase inhibitors, potency, dose response, cell-based, HeLa, CREF/GAPDH counter-screen panel (AID 624167)
# condition_notes: CREF/GAPDH counter-screens; HeLa PEG-Prom luciferase reporter, overnight, run 2, dose range 1, at 100 µM (top of the series) unless noted
recorded_metric: inhibition (%)

CC(=O)N1CCN(c2cc(-c3ccccc3)nc3cc(-c4cccc(Cl)c4)nn23)CC1; 95.5
OCCCNc1nccc(-c2cc(Nc3cccc(Cl)c3)ncn2)n1; 97.4
Cc1cc(C(=O)Nc2cccc(C(=O)O)c2)oc1C; 85.8
CCCOc1ccc(NC(=O)CC2C(=O)N(CC)C(=S)N2CCCN2CCN(Cc3ccccc3)CC2)cc1 (stereo not given); 101
COc1ccc(NC(=O)Nc2nc(C(N)C3CCCCC3)cs2)cc1 (stereo not given); 99
CCn1cc(CN2CCC(C(=O)Nc3cccc(-c4cccc(Cl)c4)c3)CC2)cn1; 98.3
COC(=O)c1ccc(CNC(=O)Cn2cnc3c(NCc4ccccc4)ncnc32)cc1; 74.3
Clc1ccccc1/C=C/c1nc(-c2ccccn2)no1; 96.5
CCc1ccc(/C=C2\SC(=S)N(CCCC(=O)Nc3cc(C)on3)C2=O)cc1; 87.3

----------
# test_summary: caspase-8 TRAIL sensitization, hit retest, confirmation, cell-based, NB7+caspase-8, with/without TRAIL, luminescence panel (AID 651596)
# condition_notes: NB7 neuroblastoma + caspase-8, without TRAIL, luminescence viability, without TRAIL, mean of runs, at 10 µM
recorded_metric: activity (%)

CCS(=O)(=O)c1ncc(Cl)c(C(=O)Nc2ccc(S(=O)(=O)N3CCC(C)CC3)cc2)n1; 98.8
O=C(CCl)Nc1ccccc1C(=O)Nc1ccc2c(c1)OCO2; 73.8
Cc1cccc(-c2cc3nc(-c4ccccc4)cc(=O)n3[nH]2)c1; 55.2
O=C(NCC1CCCO1)c1ccc2c3n(nc2c1)-c1ccccc1CO3 (stereo not given); 54.6
C/C(=N\NC(=O)c1ccc(Cl)cc1)c1ccccn1; 51
CC(C)(C)c1ccc(C(=O)O/N=C(\N)Cc2cccs2)cc1; 77.5
CC(C)C[C@H]1CNC(=S)N1C[C@H]1CCCN1C[C@H](Cc1ccccc1)N1C[C@H](Cc2ccc(O)cc2)N(CC2CCCCC2)C1=S; -1.23
CN(NC(=O)c1ccc(Cl)cc1)c1nc(-c2ccccc2)nnc1C(F)(F)F; 57.8
Brc1ccc(-c2nc(N/N=C/c3cccnc3)c3ccccc3n2)cc1; 89.7
CC(C)c1ccc(NC(=O)Nc2nc(C(N)C3CCCCC3)cs2)cc1 (stereo not given); 99.3
Cc1ccccc1Nc1nc(N)nc(CCl)n1; 96.2
COc1cccc(/C=C/C(=O)Nc2ccc3c(c2)OCCO3)c1OC; 82
C/C(=N\Nc1nc2ccccc2[nH]1)c1ccccn1; 68.5
O=c1c2c3c(sc2nc2n1N=C(c1cccs1)CS2)CCCC3; 77
COn1c(SCc2ccc(Cl)cc2)nc2ccccc2c1=O; 47.9
CCCCC[C@@H](C)N1C[C@H](COCc2ccccc2)Oc2cc(N3CC[C@@H](N(C)C)C3)ccc2S1(=O)=O; 43.6
Cc1cccc2sc(NNC(=O)c3ccc(S(=O)(=O)N4CC(C)CC(C)C4)cc3)nc12 (stereo not given); 49.8
CCOC(=O)c1c(C)oc2c(F)c(F)c(F)c(F)c2c1=O; 99.2
Cc1nc2cc(-c3ccccc3)nn2c(N)c1-c1ccccc1; 44.4
C=CCOc1cccc(/C=C/c2nc3ccccc3c(=O)[nH]2)c1; 64.8
Cn1c(=O)c2c(SCC(=O)Nc3ccccc3F)nc(C3CC3)nc2n(C)c1=O; 44.9
CCOc1cc(/C=N\NC(=O)c2ccc(NC(=O)C(C)(C)C)cc2)ccc1OC(=O)c1cccc(C)c1; 47.2
CCC(=O)c1ccc(OCC(=O)OCC(=O)N2CCCc3ccccc32)cc1; -14.8
O=C(NNc1nc(=O)c2cccnc2s1)c1ccccc1O; 43.9
COC(=O)c1ccc(/C=C/c2nc3ccccc3c(=O)[nH]2)cc1; 52.2
Cc1ccc(C)c(NC(=S)NC(NC(=O)Cc2cccc3ccccc23)C(Cl)(Cl)Cl)c1 (stereo not given); 87.8
COc1cccc(NC(=O)Nc2nccc(C)n2)c1; 53
CCOc1ccc2nc(NC(=O)c3ccco3)sc2c1; 69.8
COn1c(SC2CCCCC2)nc2ccccc2c1=O; 60.1
Cn1nnc(NC(=O)c2ccc(C(C)(C)C)cc2)n1; 51.8
Cc1[nH]nc2nc(SCC(=O)NCCC3=CCCCC3)n(-c3ccc(Br)cc3)c(=N)c12; 88.4
COc1ccc(/C=N/Nc2cc(C)nc(-n3nc(C)cc3C)n2)c(OC)c1; 12.9
c1ccc(-c2cnc(-c3ccccn3)nn2)cc1; 53.5
COc1ccc2[nH]cc(C(=O)CCl)c2c1; 99.2
O=C(/C=C/Nc1ccccc1C(F)(F)F)c1ccco1; 99.3
C=CCN=c1scc(-c2ccccc2)n1/N=C/c1ccccn1; 24.8
Cc1c(C(=O)Nc2cccc([N+](=O)[O-])c2)csc1-c1ccccc1; 48.1
Cc1cc(-c2ccc(F)cc2)n2ncc(-c3ccccc3)c2n1; 84.3
CCOc1ccc(C(=O)Nc2nnc(SCC(=O)NCC3CCCO3)s2)cc1 (stereo not given); 96.3
COc1ccc(-c2cc3ccccc3c(=O)o2)cc1; 56.6
Cc1ccc2nc(-c3ccccc3)cn2c1; 93.9
COc1ccc2nc(NC(=O)c3ccccc3F)sc2c1; 73.8
COC(=O)c1ccc2nc(-c3cccc(N)c3)cn2c1; 67.8
O=C(NCc1ccccc1)c1c(Cl)nc(Cl)c(Cl)c1Cl; 99.9
COc1ccc(C(CCN(Cc2ccc(OC)c(OC)c2)C(=O)CCl)c2ccccc2)cc1 (stereo not given); 99.7

----------
# test_summary: inhibitors of PAF-induced NFkB signaling in CF airway cells, dose response, cell-based, uHTS hits, panel, cytotoxicity readout (AID 624344)
# condition_notes: CF bronchial epithelial cells, PAF-induced NFkB reporter inhibition, with PAF, run 2; at 79 µM (top of the series) unless noted
Below, each entry is listed with its recorded inhibition.
recorded_metric: inhibition (%)

CC(C)n1c(SCc2ccccc2F)nc2c1c(=O)n(C)c(=O)n2C; 95.1
Cc1nc2c(O)c3c(c(O)c2nc1C)C1C=CC3CC1; 103
CCOC(=O)Nc1ccc2c(c1)N(C(=O)CCN(CC)CC)c1ccccc1S2=O (stereo unspecified); 107
O=c1c(O)c(-c2ccccc2)oc2cc(O)cc(O)c12; 106
O=C(Nc1nnc(S(=O)(=O)N2CCCCCC2)s1)c1cccc(Br)c1; 68.3
COc1ccc(CN(CCC(c2ccc(F)cc2)C2CCOC(C)(C)C2)C(=O)c2ccco2)cc1 (stereo unspecified); 111

----------
# tested_target: Tumor necrosis factor receptor superfamily member 10B (Homo sapiens)
# test_summary: caspase-8 TRAIL sensitization, hit retest, confirmation, cell-based, NB7+caspase-8, with/without TRAIL, luminescence panel (AID 651596)
# condition_notes: NB7 neuroblastoma + caspase-8, TRAIL sensitization, luminescence viability, with TRAIL, mean of runs, at 10 µM, stronger effect = higher value
Reported activity values are given for each entry in this list.
recorded_metric: activity (%)

N=c1oc2cc(O)ccc2cc1C(=O)Nc1ccc(Cl)cc1; 34.3
O=C(Nc1nc2ccccc2n1CCN1CCCCC1)C1CCCCC1; 56.6
CCC(C(=O)O/N=C(\N)c1ccc(C)cc1)c1ccccc1 (stereo not given); 65.2
O=C(NCCN1C(=O)S/C(=C\c2ccc(Cl)c([N+](=O)[O-])c2)C1=O)C1=COCCO1; 63.1
COc1ccc(C)c2sc(N(CCCN(C)C)C(=O)c3ccc(S(=O)(=O)N4CCc5ccccc5C4)cc3)nc12; 95.1
